Hi there, I'd appreciate the recorded IC50 for every entry that follows.
- test_system: hFASN enzyme (full length) (Homo sapiens)
- Construct: 10 μL hFASN enzyme (full length, 300 ng, purified in house); made in house
- Sequence (P49327 whole entry): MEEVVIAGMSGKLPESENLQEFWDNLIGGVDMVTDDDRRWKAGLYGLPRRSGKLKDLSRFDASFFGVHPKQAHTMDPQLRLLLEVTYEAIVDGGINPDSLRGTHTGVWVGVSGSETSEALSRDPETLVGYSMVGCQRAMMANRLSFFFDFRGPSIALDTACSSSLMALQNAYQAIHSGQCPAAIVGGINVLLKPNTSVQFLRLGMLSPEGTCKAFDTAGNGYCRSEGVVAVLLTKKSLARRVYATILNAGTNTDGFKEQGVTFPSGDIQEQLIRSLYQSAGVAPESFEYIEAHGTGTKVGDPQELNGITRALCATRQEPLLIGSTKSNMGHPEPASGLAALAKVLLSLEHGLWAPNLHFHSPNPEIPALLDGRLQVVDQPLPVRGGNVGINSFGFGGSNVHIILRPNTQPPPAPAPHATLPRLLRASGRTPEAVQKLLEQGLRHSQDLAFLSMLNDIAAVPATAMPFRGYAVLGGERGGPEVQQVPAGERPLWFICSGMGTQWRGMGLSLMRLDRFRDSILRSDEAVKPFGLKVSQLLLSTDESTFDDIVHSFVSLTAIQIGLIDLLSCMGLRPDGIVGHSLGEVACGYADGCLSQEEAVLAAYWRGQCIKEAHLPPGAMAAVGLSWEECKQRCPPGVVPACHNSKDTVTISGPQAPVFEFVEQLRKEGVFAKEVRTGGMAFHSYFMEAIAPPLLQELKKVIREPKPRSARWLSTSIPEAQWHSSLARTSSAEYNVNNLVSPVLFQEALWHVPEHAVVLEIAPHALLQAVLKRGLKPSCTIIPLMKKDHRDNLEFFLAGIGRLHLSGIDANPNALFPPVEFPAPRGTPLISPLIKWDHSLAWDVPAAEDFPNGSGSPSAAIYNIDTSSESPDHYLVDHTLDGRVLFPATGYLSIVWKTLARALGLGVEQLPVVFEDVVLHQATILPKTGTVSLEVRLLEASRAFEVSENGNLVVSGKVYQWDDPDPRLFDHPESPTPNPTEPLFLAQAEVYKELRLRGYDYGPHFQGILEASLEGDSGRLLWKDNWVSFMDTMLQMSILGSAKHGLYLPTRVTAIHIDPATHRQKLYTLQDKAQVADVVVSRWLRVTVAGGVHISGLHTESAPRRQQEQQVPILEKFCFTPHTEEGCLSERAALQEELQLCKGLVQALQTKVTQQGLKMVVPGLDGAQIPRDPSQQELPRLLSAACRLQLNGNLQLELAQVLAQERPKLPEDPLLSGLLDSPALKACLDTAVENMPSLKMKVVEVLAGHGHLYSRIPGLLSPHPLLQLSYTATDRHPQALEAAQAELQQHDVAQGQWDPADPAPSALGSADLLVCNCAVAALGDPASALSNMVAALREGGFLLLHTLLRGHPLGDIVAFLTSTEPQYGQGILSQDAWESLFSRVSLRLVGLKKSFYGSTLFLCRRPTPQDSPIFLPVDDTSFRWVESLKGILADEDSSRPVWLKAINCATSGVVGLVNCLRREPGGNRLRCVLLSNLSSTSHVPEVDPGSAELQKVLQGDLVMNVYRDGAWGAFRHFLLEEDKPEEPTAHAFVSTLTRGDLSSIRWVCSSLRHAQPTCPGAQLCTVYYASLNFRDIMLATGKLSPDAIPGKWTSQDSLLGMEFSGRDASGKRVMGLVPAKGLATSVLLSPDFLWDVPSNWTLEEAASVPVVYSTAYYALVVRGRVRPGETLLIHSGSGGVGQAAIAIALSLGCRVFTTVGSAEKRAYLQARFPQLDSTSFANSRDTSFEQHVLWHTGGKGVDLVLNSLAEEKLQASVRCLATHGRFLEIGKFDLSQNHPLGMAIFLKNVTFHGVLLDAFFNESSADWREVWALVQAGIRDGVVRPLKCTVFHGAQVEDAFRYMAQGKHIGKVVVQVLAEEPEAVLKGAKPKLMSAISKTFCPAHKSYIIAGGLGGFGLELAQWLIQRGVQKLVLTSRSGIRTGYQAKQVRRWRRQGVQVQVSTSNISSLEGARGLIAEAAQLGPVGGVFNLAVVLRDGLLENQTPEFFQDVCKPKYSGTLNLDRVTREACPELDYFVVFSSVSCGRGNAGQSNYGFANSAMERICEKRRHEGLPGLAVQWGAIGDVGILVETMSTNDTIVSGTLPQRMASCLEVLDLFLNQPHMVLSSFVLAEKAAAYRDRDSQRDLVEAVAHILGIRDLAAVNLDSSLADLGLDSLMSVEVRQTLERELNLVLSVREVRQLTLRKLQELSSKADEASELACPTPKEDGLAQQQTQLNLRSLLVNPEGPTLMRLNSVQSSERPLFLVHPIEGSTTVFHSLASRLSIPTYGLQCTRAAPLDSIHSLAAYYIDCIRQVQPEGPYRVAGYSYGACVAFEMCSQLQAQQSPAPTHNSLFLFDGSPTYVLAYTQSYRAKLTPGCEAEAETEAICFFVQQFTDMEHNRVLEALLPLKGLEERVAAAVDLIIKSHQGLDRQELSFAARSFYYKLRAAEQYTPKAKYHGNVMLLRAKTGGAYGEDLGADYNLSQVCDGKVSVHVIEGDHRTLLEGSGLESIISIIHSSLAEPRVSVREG
- test_summary: Fatty Acid Synthase (FASN) inhibition scintillation proximity assay
- Type: biochemical
- conditions_used: read-out: Human FASN pIC50 (converted)
Answer with a number only, understood to be in µM.

# input For hFASN enzyme (full length) (Homo sapiens), give the measured IC50 of the entry O=C(C1CC1)N1CC[C@@H](CN2C(=O)C3(CC3)N=C2c2ccc(-c3ccc4cnc(Cl)cc4c3)cc2)C1 [compound 466]
# output 0.479

# input Look up and report IC50, with hFASN enzyme (full length) (Homo sapiens) as system, for COCCN1CCC2(CC1)N=C(c1ccc(-c3ccc4[nH]ncc4c3)cc1)N(CC1CN(C(=O)C3CC3)C1)C2=O [compound 756]
# output 1.58

# input For hFASN enzyme (full length) (Homo sapiens), give the measured IC50 of the entry Cc1oc2ccc(-c3ccc(C4=NC5(CC5)C(=O)N4CC4CN(C(=O)C5CC5)C4)cc3F)cc2c1C [compound 417]
# output 5.25

# input Fill in: IC50 on hFASN enzyme (full length) (Homo sapiens), entry Cn1cc2cc(-c3ccc(C4=NC5(CC5)C(=O)N4CC4CN(C(=O)C5CC5)C4)cc3)ccc2n1 [compound 507]
# output 0.417

# input Param request: IC50 | system hFASN enzyme (full length) (Homo sapiens) | item Cc1ccc2ccc(-c3ccc(C4=NC5(CC5)C(=O)N4CC4CN(C(=O)C5CC5)C4)cc3)cc2n1 [compound 513]
# output 1.23

# input Please indicate recorded IC50 of O=C(C1CC1)N1CC[C@@H](CN2C(=O)C3(CCN(Cc4ccccc4)CC3)N=C2c2ccc(-c3ccc4[nH]ccc4c3)cc2)C1 [compound 63] measured with hFASN enzyme (full length) (Homo sapiens).
# output 0.0741

# input Give IC50; test system hFASN enzyme (full length) (Homo sapiens); compound Cc1cc(-c2cccc(SC3CC3)c2)ccc1C1=NC2(CC2)C(=O)N1C[C@@H]1CCN(C(=O)C2CC2)C1 [compound 642]
# output 0.219

# input Tell me its IC50 on hFASN enzyme (full length) (Homo sapiens): Cc1cc2cc(-c3ccc(C4=NC5(CCN(C(=O)C(C)C)CC5)C(=O)N4C[C@@H]4CCN(C(=O)C5CC5)C4)cc3)ccc2o1 [compound 172]
# output 0.251

# input Give measured IC50 for O=C(C1CC1)N1CC[C@@H](CN2C(=O)C3(CC3)N=C2c2ccc(-c3ccc4sccc4c3)s2)C1 [compound 425] (hFASN enzyme (full length) (Homo sapiens)).
# output 0.275
